Taken from paper PMC5000617.

Tested on: 3T3-L1 cells
TEST_METHOD_NOTES: WST-1 cell proliferation assay, 3T3-L1 non-tumour cells
Assay type: cell-based, mouse
SETUP_CONDITIONS: Mus musculus, 3T3-L1; WST-1, 24 h, non-tumour cells, mean ± SD
REPORTED_ENDPOINT: IC50

# SMILES_NOTATION, TARGET_ENTITY, OBS_VALUE
data = [
    ("O=C(Nc1ccccc1[N+](=O)[O-])c1cc2ccccc2cc1O", "3T3-L1 cells", "> 20 µM"),
    ("O=C(Nc1ccc([N+](=O)[O-])cc1)c1c(O)ccc2ccccc12", "3T3-L1 cells", "> 20 µM"),
    ("O=C(Nc1ccccc1[N+](=O)[O-])c1c(O)ccc2ccccc12", "3T3-L1 cells", "> 20 µM"),
    ("O=C(Nc1cccc([N+](=O)[O-])c1)c1cc2ccccc2cc1O", "3T3-L1 cells", "> 20 µM"),
    ("O=C(Nc1cccc([N+](=O)[O-])c1)c1c(O)ccc2ccccc12", "3T3-L1 cells", "> 20 µM"),
]

input: State the recorded IC50 for this entry: O=C(Nc1ccc([N+](=O)[O-])cc1)c1cc2ccccc2cc1O
output: 4.41 µM

---

TEST_METHOD_NOTES: Annexin V-FITC/PI apoptosis assay by flow cytometry, THP-1
Assay type: cell-based, human
SETUP_CONDITIONS: human, THP-1 cells; THP-1, 10 μM, 12 h, representative dot plot; read-out: quadrant I: viable cells
REPORTED_ENDPOINT: viability at 12 h, 10 µM

input: // returns reported viability at 12 h, 10 µM for input O=C(Nc1cccc([N+](=O)[O-])c1)c1cc2ccccc2cc1O
output: 64.9%

---

TEST_METHOD_NOTES: Annexin V-FITC/PI apoptosis assay by flow cytometry, THP-1
Type: cell-based, human
SETUP_CONDITIONS: human, THP-1 cells; THP-1, 5 μM, 24 h, representative dot plot; read-out: quadrant I: viable cells
Quick reference for viability at 24 h, 5 µM among some compounds
Please reply with the bare figure in % and do not write the unit itself.

# COMPOUND, viability at 24 h, 5 µM [%]
data = [
    ("O=C(Nc1cccc([N+](=O)[O-])c1)c1cc2ccccc2cc1O", 75.7),
]

# ---- query compound ----
input: Please give the measured viability at 24 h, 5 µM for this compound: CC[C@@]1(O)C(=O)OCc2c1cc1n(c2=O)Cc2cc3ccccc3nc2-1 [camptothecin, reference compound]
output: 50.9

---

Tested on: MCF-7 cells
TEST_METHOD_NOTES: WST-1 cell proliferation assay, MCF-7
Assay type: cell-based, human
SETUP_CONDITIONS: Homo sapiens, MCF7; WST-1, 24 h, 0.5-20 μM, mean ± SD
pIC50: −log10 of the molar value.
REPORTED_ENDPOINT: pIC50

Some compounds with known pIC50 results, for comparison:
# COMPOUND, pIC50
rows = [
    ("O=C(Nc1ccccc1[N+](=O)[O-])c1c(O)ccc2ccccc12 [Compound 4]", "< 4.70"),
    ("O=C(Nc1ccccc1[N+](=O)[O-])c1cc2ccccc2cc1O [Compound 1]", "< 4.70"),
]

# evaluate next
input: Which pIC50 is listed for O=C(Nc1cccc([N+](=O)[O-])c1)c1c(O)ccc2ccccc12 [Compound 5] ?
output: < 4.70
